target: T1, Dimeric fibrinogen-like domain of human Ang-2 conjugated to human IgG1 (human); experiment: SPR, hIgG1 antibody captured, room temp
T1 construct: also called Dimeric Human Ang-2FD; Human Ang-2FD-hFc
T1 sequence (chain, as listed by the source limits assumed): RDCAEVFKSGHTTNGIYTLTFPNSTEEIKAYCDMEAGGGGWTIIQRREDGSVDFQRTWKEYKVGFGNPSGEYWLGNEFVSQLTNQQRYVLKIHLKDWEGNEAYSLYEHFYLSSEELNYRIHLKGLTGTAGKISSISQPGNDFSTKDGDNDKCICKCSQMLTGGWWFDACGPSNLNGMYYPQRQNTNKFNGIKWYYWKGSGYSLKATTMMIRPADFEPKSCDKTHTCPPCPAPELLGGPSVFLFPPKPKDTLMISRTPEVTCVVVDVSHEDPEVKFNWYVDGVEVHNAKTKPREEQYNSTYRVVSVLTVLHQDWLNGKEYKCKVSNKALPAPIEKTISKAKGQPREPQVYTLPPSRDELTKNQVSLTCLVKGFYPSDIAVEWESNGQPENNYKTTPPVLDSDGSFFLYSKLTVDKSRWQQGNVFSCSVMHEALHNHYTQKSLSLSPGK

{"columns": ["binder", "Kd"],
 "data": [
  ["H1H750N (antibody, V domains shown) VH: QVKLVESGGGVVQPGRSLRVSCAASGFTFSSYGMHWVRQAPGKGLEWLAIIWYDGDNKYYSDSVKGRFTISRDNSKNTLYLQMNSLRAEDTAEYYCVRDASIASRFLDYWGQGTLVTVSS VL: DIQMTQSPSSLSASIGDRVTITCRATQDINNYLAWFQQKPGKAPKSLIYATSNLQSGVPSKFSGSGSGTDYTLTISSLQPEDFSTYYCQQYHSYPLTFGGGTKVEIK", "0.164 nM"],
  ["H1H695P (antibody, V domains shown) VH: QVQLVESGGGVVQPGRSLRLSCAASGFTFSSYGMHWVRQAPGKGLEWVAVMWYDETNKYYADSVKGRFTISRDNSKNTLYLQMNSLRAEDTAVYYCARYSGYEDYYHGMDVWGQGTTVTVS VL: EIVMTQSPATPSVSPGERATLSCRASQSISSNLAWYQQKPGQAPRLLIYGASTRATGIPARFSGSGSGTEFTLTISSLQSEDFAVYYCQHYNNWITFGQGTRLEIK", "0.245 nM"],
  ["H1H744N (antibody, V domains shown) VH: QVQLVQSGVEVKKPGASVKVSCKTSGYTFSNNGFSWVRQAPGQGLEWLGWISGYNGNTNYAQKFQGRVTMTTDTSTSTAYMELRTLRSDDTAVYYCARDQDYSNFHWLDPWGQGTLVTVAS VL: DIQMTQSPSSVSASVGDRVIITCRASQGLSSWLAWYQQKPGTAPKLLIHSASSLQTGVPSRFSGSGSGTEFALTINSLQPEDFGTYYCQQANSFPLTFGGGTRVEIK", "0.114 nM"],
  ["H1H728N (antibody, V domains shown) VH: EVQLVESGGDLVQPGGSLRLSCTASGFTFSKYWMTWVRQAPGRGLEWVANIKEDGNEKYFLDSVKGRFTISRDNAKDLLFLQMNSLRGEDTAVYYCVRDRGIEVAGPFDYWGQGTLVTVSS VL: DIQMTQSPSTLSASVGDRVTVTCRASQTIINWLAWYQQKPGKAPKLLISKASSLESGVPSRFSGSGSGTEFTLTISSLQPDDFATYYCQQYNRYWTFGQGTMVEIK", "0.162 nM"],
  ["H1H742N (antibody, V domains shown) VH: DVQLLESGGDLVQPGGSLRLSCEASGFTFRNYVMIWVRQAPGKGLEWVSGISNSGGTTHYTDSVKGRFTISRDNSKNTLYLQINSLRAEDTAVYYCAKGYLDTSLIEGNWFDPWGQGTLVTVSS VL: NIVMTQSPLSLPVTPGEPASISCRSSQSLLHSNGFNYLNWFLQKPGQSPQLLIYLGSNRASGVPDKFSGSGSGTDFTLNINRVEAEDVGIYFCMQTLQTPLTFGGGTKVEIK", "0.186 nM"]
]}
